B1: HDV Ribozyme (parent)
chain: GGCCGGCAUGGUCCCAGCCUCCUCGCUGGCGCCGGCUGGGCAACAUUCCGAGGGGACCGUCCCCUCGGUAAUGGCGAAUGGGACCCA

# Variants of: B1
# method description: self-cleavage, relative activity (ratio to wild type); higher = more cleavage; co-transcriptional
measured quantity: self-cleavage
Output spec: single numeric token, no unit.

Which self-cleavage value is on record for U69G C84A ?
0.779

Record request: self-cleavage value, item A16C U69C
0.739

Return reported self-cleavage; argument: G52C C63G
0.892

Return reported self-cleavage; argument: C14G C15G
0

Which self-cleavage value is on record for C14G C75U ?
0.155

Data request, read-out self-cleavage, for G10A C36A
0.0687

I'd like to know its self-cleavage. The variant in question is G53C C66G
1.01

self-cleavage lookup needed for A43U G68A , thanks.
0.408

Entry U72G A87U : reported self-cleavage = ?
0.735

Please report the recorded self-cleavage for G2A C3A .
0.0478

Dear colleague, I am looking for the recorded self-cleavage of the following variant: C15U C66U
1.21

Entry A56C G76U : reported self-cleavage = ?
1.19

Endpoint output: self-cleavage of C14U C84A . Value?
0.643

Any idea what self-cleavage was measured for U23C C36G ?
0.125

What value of measured self-cleavage is listed for C3U G59U ?
0.943

Look up self-cleavage: C19G G34U
0.095

Need self-cleavage, item C3A C57G
0.587

Recorded self-cleavage for G6A U23C , please?
0.532

Quick one: self-cleavage of G68C C84G ?
0.639

I have this variant here, C19U A56G , and I need its recorded self-cleavage.
0.119

I'd like to know its self-cleavage. The variant in question is G2A C26U
0.138

Which self-cleavage reading was recorded for the variant C30U A83G ?
0.302

For the variant C3U U9C , what self-cleavage is on record?
0.95

Requested read-out: self-cleavage. Entry: U20A A45C
0.0639

Can you share its self-cleavage? I mean this variant: C13A G54C
0.283

I would be grateful if you could share the reported self-cleavage for A16C G25U .
0

Recorded self-cleavage for C18A G28U , please?
0

Name the recorded self-cleavage for C32U G67U .
0.88

Return reported self-cleavage; argument: G5U U69A
0.262

Dear colleague, I am looking for the recorded self-cleavage of the following variant: G54U G55C
0.953

Endpoint output: self-cleavage of G10A U69G . Value?
0.554

Form field: reported self-cleavage of G38A G40U
0.149

Which self-cleavage is reported for this variant? G6C A51G
0.222

Param item = A56C G74A ; retrieve measured self-cleavage.
0.65

Entry A42G A87U : reported self-cleavage = ?
0.479

// returns reported self-cleavage for input A42C G80A
0.234

Item G17U G80C has what recorded self-cleavage?
0.102
